Recorded values, source ChEMBL document CHEMBL4024705.

tested on: Liver; assay: Stability of the compound in rat liver microsomes assessed as compound remaining; format: ADME, microsome
observed.property: Stability (%)

Example results:
C[C@H]1OC(C)(C)C(=O)N(c2cc(-c3cc(C(F)(F)F)c4c(N)ncnn34)ccc2C#N)[C@H]1C | 2
C[C@H]1CN(c2cc(-c3cc(Cl)c4c(N)ncnn34)ccc2C#N)C(=O)C(C)(C)O1 | 0
[2H]C1([2H])OC(C)(C)C(=O)N(c2cc(-c3cc(C(F)(F)F)c4c(N)ncnn34)ccc2C#N)C1([2H])[2H] | 75
C[C@@H]1CN(c2cc(-c3cc(Cl)c4c(N)ncnn34)ccc2C#N)C(=O)C(C)(C)O1 | 5

1 = C[C@@H]1COC(C)(C)C(=O)N1c1cc(-c2cc(Cl)c3c(N)ncnn23)ccc1C#N
2 = [2H]C1([2H])OC(C)(C)C(=O)N(c2cc(-c3cc(Cl)c4c(N)ncnn34)ccc2C#N)C1([2H])[2H]
Q) Of the two listed items, which has the higher Stability? First: 1 Second: 2 # answer = label of selected item
A) 2

---

system: Liver; test: Stability of the compound in rat liver microsomes assessed as compound remaining; type: ADME, microsome
observed.property: Stability (%)

P = C[C@H]1CN(c2cc(-c3cc(C(F)(F)F)c4c(N)ncnn34)ccc2C#N)C(=O)C(C)(C)O1
Q = CC[C@H]1COC(C)(C)C(=O)N1c1cc(-c2cc(Cl)c3c(N)ncnn23)ccc1C#N
R = C[C@H]1COC(C)(C)C(=O)N1c1cc(-c2cc(C(F)(F)F)c3c(N)ncnn23)ccc1C#N
Q) Order the entries above by descending Stability. Please write the labels in the order that was asked for.
A) P, Q, R
